Collected % Activation (Edg-1 receptor activation in percent of the activation by 10 μM S1P) values appear next to each entry.
target_of_assay: human Edg-1 receptor (Homo sapiens)
Construct: expressed in transfected cells; membrane preparation
Sequence (P21453 whole entry): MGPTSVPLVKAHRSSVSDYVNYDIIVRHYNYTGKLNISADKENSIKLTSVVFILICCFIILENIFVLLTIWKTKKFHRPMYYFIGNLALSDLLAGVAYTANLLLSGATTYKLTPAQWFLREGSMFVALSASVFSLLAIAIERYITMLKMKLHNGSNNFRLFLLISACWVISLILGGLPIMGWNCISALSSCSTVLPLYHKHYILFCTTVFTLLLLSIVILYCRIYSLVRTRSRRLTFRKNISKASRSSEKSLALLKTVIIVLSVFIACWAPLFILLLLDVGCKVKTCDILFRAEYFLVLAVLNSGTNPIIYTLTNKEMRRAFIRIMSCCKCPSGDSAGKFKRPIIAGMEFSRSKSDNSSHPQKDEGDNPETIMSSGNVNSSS
protocol: GTP-γ-S assay using human Edg-1 receptors (scintillation proximity assay, membrane preparation from CHO Flp-In cell line)
Assay type: biochemical
assay_conditions: example compound at 10 μM; relative to 10 μM S1P; GTP-γ-S SPA, human Edg-1 membranes
# value in %; strip the unit string

CCCOc1nc(Cc2ccc(Cl)cc2)nc2oc(-c3ccc(OC)nc3)nc12 = 26
CCCOc1nc(CN2CCC(F)(F)CC2)nc2oc(-c3ccc(OC)c(F)c3)nc12 = 103
CCCOc1nc(CN2CCC(=O)C(C(=O)OC)C2)nc2oc(-c3cccc(F)c3)nc12 (centres unmarked) = 78
CCCOc1nc(Cc2ccc(Cl)cc2)nc2oc(-c3cc(F)ccc3F)nc12 = 116
CCCOc1nc(Cc2ccc(Cl)cc2)nc2oc(-c3cc(C)c(OCCCNCCS(N)(=O)=O)c(C)c3)nc12 = 92
CCCOc1nc(CN2CCOCC2)nc2oc(-c3ccccc3)nc12 = 116
CCOc1nc(Cc2ccc(Cl)cc2)nc2oc(-c3cc(C)c(OCC(O)CSc4nnc(C5CC5)[nH]4)c(C)c3)nc12 (centres unmarked) = 79

Kindly review the next molecule as well.
Field: % Activation (Edg-1 receptor activation in percent of the activation by 10 μM S1P) (human Edg-1 receptor (Homo sapiens)). Entry: `CCCOc1nc(Cc2ccc(Cl)cc2)nc2oc(-c3ccc(F)c(C)c3)nc12` 78
